- experimental-target: T1, human TREM2 expressed on cells (human, UniProt Q9NZC2 19-230)
- T1 sequence: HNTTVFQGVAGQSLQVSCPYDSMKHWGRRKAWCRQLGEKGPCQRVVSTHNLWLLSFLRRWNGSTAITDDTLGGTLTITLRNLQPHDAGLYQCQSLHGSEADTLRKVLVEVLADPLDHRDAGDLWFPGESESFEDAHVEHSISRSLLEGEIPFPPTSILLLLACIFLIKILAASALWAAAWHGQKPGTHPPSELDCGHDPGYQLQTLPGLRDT
- assay-procedure: cell-based or functional assay
measured-endpoint: DC viability (AUC)
Give the number first and the unit second.

>  <binder>
AL2p-39 (antibody, V domains shown, Fab and IgG formats under one id) VH: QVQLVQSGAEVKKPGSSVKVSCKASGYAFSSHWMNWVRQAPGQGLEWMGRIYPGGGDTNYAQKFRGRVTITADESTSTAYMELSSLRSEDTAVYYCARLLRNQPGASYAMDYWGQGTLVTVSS VL: GVVMTQTPLSLSVTPGQPASISCRSSRSLVHSNQYTYLHWYLQKPGQSPQLLIYKVSNRRSGVPDRFSGSGSGTDFTLKISRVEAEDVGVYYCSQSTRVPYTFGQGTKLEIK

>  <value>
851000 AUC

$$$$

Fill blank: measured DC viability (AUC) of the binder AL2p-31 (antibody, V domains shown, Fab and IgG formats under one id) VH: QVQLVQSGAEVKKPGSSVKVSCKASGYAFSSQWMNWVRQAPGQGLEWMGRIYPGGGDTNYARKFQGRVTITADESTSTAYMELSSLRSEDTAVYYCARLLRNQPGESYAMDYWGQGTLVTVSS VL: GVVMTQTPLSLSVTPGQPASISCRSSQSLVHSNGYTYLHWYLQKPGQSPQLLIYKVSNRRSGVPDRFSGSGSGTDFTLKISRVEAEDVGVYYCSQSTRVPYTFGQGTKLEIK is ____.
860000 AUC
